The reported numbers originate from patent US20250171438A1.

- measuredTarget: human PAH with the R408W mutation (Homo sapiens, UniProt P00439, R408W)
- Construct: expressed in transfected cells
- Sequence (P00439 1-452 R408W): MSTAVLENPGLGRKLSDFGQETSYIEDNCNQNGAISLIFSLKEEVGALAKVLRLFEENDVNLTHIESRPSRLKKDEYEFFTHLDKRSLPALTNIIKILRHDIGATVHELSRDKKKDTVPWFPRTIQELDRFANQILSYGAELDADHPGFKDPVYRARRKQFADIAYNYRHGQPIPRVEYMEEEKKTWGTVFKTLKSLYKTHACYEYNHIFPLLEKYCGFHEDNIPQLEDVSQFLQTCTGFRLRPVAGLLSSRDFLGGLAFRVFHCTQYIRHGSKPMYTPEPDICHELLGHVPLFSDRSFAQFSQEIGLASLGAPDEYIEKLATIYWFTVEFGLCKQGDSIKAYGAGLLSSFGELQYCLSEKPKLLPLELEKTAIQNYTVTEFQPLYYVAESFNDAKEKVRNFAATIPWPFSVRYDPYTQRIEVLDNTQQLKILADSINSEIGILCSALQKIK
- measurementDescription: Cell Based Phenylalanine Flux Assay
- experimentalParameters: A375 cells expressing human R408W PAH; 24 hrs with compound; 13C-Tyrosine by LC-MS; average where tested multiple times; read-out: AC50
propertyLabel: AC50

Below, 5 molecules whose answers are already recorded.
* [2H]C([2H])([2H])OCc1cc(C(=O)N2CCc3[nH]cnc3C2c2nc3c(F)cccc3s2)n(C)n1 (stereo not drawn) | > 5 µM
* O=C(c1nc2ccccc2s1)N1CCc2[nH]cnc2C1c1nc2ccc(Br)cc2[nH]1 (stereo not drawn) | 1 to 5 µM
* O=C(c1ccc(F)cc1)N1CCc2[nH]cnc2C1c1nc2ccccc2[nH]1 (stereo not drawn) | 1 to 5 µM
* Cn1nc(CC#N)nc1C(=O)N1CCc2[nH]cnc2C1c1nc2c(F)cccc2s1 (stereo not drawn) | 1 to 5 µM
* O=C(c1nccs1)N1CCc2nc[nH]c2C1c1nc2ccc(F)cc2s1 (stereo not drawn) | > 5 µM

Form entry - test system: human PAH with the R408W mutation (Homo sapiens, UniProt P00439, R408W); read-out: AC50; molecule: COc1ccn2ncc(C(=O)N3CCc4[nH]cnc4C3c3nc4ccc(Br)cc4[nH]3)c2c1 (stereo not drawn) > 5 µM

Follow-up item: CC1CN(C(=O)c2cnco2)C(c2nc3c(F)cccc3s2)c2nc[nH]c21 (stereo not drawn) > 5 µM

----------
- measuredTarget: human PAH with the R408W mutation (Homo sapiens, UniProt P00439, R408W)
- Construct: expressed in transfected cells
- Sequence (P00439 1-452 R408W): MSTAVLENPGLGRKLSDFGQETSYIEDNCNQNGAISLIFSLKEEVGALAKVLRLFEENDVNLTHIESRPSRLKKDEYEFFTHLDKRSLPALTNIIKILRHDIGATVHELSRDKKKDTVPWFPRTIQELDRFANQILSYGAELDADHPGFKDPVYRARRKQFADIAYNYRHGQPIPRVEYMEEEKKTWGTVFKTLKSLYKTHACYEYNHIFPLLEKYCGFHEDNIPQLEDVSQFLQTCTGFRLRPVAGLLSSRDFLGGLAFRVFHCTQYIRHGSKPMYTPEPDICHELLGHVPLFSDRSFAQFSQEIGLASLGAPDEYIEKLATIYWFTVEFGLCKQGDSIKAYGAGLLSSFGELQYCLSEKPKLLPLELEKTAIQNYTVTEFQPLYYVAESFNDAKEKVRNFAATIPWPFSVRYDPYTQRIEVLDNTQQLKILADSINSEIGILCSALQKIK
- measurementDescription: Cell Based Phenylalanine Flux Assay
- experimentalParameters: A375 cells expressing human R408W PAH; 24 hrs compound incubation; 13C-Tyrosine by LC-MS; average where tested multiple times; read-out: AC50
Measured AC50 by item

* O=C(c1oc(C2(O)CC2)nc1C(F)F)N1CCc2[nH]cnc2[C@H]1c1nc2ccccc2s1 | < 500 nM
* O=C(c1nncs1)N1CCc2[nH]cnc2[C@H]1c1nc2c(F)cccc2s1 | 500 to 1000 nM
* C[C@@H]1CN(C(=O)c2nnc(-c3cnn(C)c3)o2)[C@@H](c2nc3ccccc3s2)c2nc[nH]c21 | 1000 to 5000 nM

Entry under review: O=C(c1oc(C2CC2)nc1C(F)(F)F)N1CCc2[nH]cnc2[C@H]1c1nc2ccccc2s1 . Reported AC50? < 500 nM

Follow-up item: Cc1c(-c2nnc(C(=O)N3CCc4[nH]cnc4[C@H]3c3nc4ccccc4s3)o2)cnn1C < 500 nM

Follow-up item: Cc1cccc2sc([C@H]3c4nc[nH]c4CCN3C(=O)c3ocnc3C(F)(F)F)nc12 500 to 1000 nM

Follow-up item: Cn1cc(-c2nnc(C(=O)N3CCc4[nH]cnc4[C@H]3c3nc4ccccc4s3)o2)c(C(F)(F)F)n1 < 500 nM

Follow-up item: O=C(c1nnc(-c2ccccn2)o1)N1CC2(CC2)c2[nH]cnc2[C@@H]1c1nc2ccccc2s1 1000 to 5000 nM

Follow-up item: O=C(c1scnc1C(F)(F)F)N1CCc2[nH]cnc2[C@@H]1c1nc2ccccc2s1 < 500 nM

Follow-up item: O=C(c1nnc(-c2ccc(F)c(F)c2)o1)N1CCc2[nH]cnc2[C@@H]1c1nc2c(F)cccc2s1 1000 to 5000 nM
